pIC50 for assorted compounds
Molecular target: Human recombinant fibroblast collagenase (Homo sapiens, UniProt P03956)
Sequence (P03956 100-469): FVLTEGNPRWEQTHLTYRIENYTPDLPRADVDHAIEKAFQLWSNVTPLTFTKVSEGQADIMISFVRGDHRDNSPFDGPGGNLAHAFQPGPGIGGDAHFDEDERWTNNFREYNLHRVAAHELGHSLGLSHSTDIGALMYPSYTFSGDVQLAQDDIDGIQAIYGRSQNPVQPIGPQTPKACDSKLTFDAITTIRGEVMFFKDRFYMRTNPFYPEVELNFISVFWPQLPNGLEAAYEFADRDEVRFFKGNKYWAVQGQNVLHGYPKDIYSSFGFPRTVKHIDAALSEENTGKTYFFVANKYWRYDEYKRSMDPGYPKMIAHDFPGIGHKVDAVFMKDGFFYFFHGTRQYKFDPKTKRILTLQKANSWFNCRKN
Test: Collagenase activity (digestion of bovine type I collagen)
Conditions: 2 hours at 35° C., read-out: IC50 for inhibition of collagenase activity
pIC50: −log10 of the molar value. Where a name gives a salt, the structure may show the parent alone.

compound	pIC50
CCCO[C@H]1CC[C@H]([C@H](C(=O)NO)N(Cc2ccncc2)S(=O)(=O)c2ccc(OC)cc2)CC1 [Example 1, hydrochloride]	~7.10
CCCO[C@H]1CC[C@H]([C@H](C(=O)NO)N(Cc2ccncc2)S(=O)(=O)c2ccc(OCC)cc2)CC1.Cl [2(u), hydrochloride]	~7.35
